Each recorded value in this set is attributed to PubChem BioAssay AID1963842.

Tested on: 677734-321-R-J1-PDC complex spheroid viability
Test: Anticancer human tumor 677734-321-R-J1-PDC patient-derived soft tissue sarcoma cell line growth inhibition [POLQ]
Conditions: second compound 3.16 µM; first compound 10 µM; stronger effect = lower value
Listed next: entries and their corresponding viability, T/C.
Report as a plain number; the unit % is understood.

molecule: O=c1[nH]cc(F)c(=O)[nH]1 + Cc1cccc(N(C)C(=O)C2C(O)CCN2c2nc(C)cc(C(F)(F)F)c2C#N)c1
viability, T/C / %: 48
--
molecule: C#Cc1c(F)ccc2cc(O)cc(-c3ncc4c(N5CC6CCC(C5)N6)nc(OCC56CCCN5CC(F)C6)nc4c3F)c12 (stereo not given) + Nc1ccc(C#CCN(C(=O)Cc2ncc(C(F)(F)F)cc2C(F)(F)F)c2ccc(F)cc2)nn1
viability, T/C / %: 96.5
--
molecule: O=C(c1cc(Cc2n[nH]c(=O)c3ccccc23)ccc1F)N1CCN(C(=O)C2CC2)CC1 + Cc1cccc(N(C)C(=O)C2C(O)CCN2c2nc(C)cc(C(F)(F)F)c2C#N)c1
viability, T/C / %: 81.6
--
molecule: O=C(c1cc(Cc2n[nH]c(=O)c3ccccc23)ccc1F)N1CCN(C(=O)C2CC2)CC1 + Nc1ccc(C#CCN(C(=O)Cc2ncc(C(F)(F)F)cc2C(F)(F)F)c2ccc(F)cc2)nn1
viability, T/C / %: 65.3

The record that follows has no viability, T/C shown yet.
Entry COc1cc(C2c3cc4c(cc3C(OC3OC5COC(C)OC5C(O)C3O)C3COC(=O)C23)OCO4)cc(OC)c1O (stereo not given) + Cc1cccc(N(C)C(=O)C2C(O)CCN2c2nc(C)cc(C(F)(F)F)c2C#N)c1 — recorded viability, T/C = 10.1

* * *

System: 677734-321-R-J1-PDC complex spheroid viability
Assay: Anticancer human tumor 677734-321-R-J1-PDC cell line growth inhibition [POLQ];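 also: spheroids exposed to compounds for one week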;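 as to viability, T/C: 100% = vehicle DMSO treated spheroids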
Details: second compound 1 µM; first compound 0.0316 µM; stronger effect = lower value
Description: Multicellular complex tumor spheroid response to Polymerase (POL) inhibitors (novobiocin, ART-558, RP6685) in combination with a variety of drugs and investigational agents in selected tumor cell lines The POL inhibitors (novobiocin, ART-558, and RP6685) were evaluated both individually and in combination with standard of care and investigational anticancer small molecules within a complex spheroid model of solid tumors. . […]
Listed next: entries and their corresponding viability, T/C.

compound: C#Cc1c(F)ccc2cc(O)cc(-c3ncc4c(N5CC6CCC(C5)N6)nc(OCC56CCCN5CC(F)C6)nc4c3F)c12 (stereo not given) + COC1C(OC(N)=O)C(O)C(Oc2ccc3c(O)c(NC(=O)c4ccc(O)c(CC=C(C)C)c4)c(=O)oc3c2C)OC1(C)C
viability, T/C: 104%
//
compound: Cn1ncnc1[C@H]1c2n[nH]c(=O)c3cc(F)cc(c23)N[C@@H]1c1ccc(F)cc1 + Nc1ccc(C#CCN(C(=O)Cc2ncc(C(F)(F)F)cc2C(F)(F)F)c2ccc(F)cc2)nn1
viability, T/C: 85.8%
//
compound: CC[C@@]1(O)C(=O)OCc2c1cc1n(c2=O)Cc2cc3c(CN(C)C)c(O)ccc3nc2-1 + Cc1cccc(N(C)C(=O)C2C(O)CCN2c2nc(C)cc(C(F)(F)F)c2C#N)c1
viability, T/C: 42.2%
//
compound: COc1cccc2c1C(=O)c1c(O)c3c(c(O)c1C2=O)CC(O)(C(=O)CO)CC3OC1CC(N)C(O)C(C)O1 (stereo not given) + Cc1cccc(N(C)C(=O)C2C(O)CCN2c2nc(C)cc(C(F)(F)F)c2C#N)c1
viability, T/C: 102%
//
compound: CCc1c2c(nc3ccc(O)cc13)-c1cc3c(c(=O)n1C2)COC(=O)[C@]3(O)CC + Cc1cccc(N(C)C(=O)C2C(O)CCN2c2nc(C)cc(C(F)(F)F)c2C#N)c1
viability, T/C: 5.16%
//
compound: COc1ccc([C@@H](O)c2cc(-c3ncnc4cc(N5CCOCC5)ccc34)c(F)cc2Cl)nn1 + COC1C(OC(N)=O)C(O)C(Oc2ccc3c(O)c(NC(=O)c4ccc(O)c(CC=C(C)C)c4)c(=O)oc3c2C)OC1(C)C
viability, T/C: 111%
//
compound: CC1COCCN1c1cc(C2(O)CC3CCC(C2)O3)c2cnn(-c3ccn[nH]3)c2n1 (stereo not given) + Cc1cccc(N(C)C(=O)C2C(O)CCN2c2nc(C)cc(C(F)(F)F)c2C#N)c1
viability, T/C: 94.2%
//
compound: COc1ccc([C@@H](O)c2cc(-c3ncnc4cc(N5CCOCC5)ccc34)c(F)cc2Cl)nn1 + Cc1cccc(N(C)C(=O)C2C(O)CCN2c2nc(C)cc(C(F)(F)F)c2C#N)c1
viability, T/C: 107%
//
compound: CC1COCCN1c1cc(C2(O)CC3CCC(C2)O3)c2cnn(-c3ccn[nH]3)c2n1 (stereo not given) + COC1C(OC(N)=O)C(O)C(Oc2ccc3c(O)c(NC(=O)c4ccc(O)c(CC=C(C)C)c4)c(=O)oc3c2C)OC1(C)C
viability, T/C: 92.5%
//
compound: CC(C)n1c(=O)n(C)c2cnc3cc(F)c(-c4ccc(OCCCN5CCCCC5)nc4)cc3c21 + Nc1ccc(C#CCN(C(=O)Cc2ncc(C(F)(F)F)cc2C(F)(F)F)c2ccc(F)cc2)nn1
viability, T/C: 109%

Entry O=C(c1cc(Cc2n[nH]c(=O)c3ccccc23)ccc1F)N1CCN(C(=O)C2CC2)CC1 + Nc1ccc(C#CCN(C(=O)Cc2ncc(C(F)(F)F)cc2C(F)(F)F)c2ccc(F)cc2)nn1 — recorded viability, T/C = 109%

Entry O=C(Nc1ccc(O)c(NS(=O)(=O)c2ccc(F)cc2)c1)c1ccc(-c2ccccc2)cc1 + COC1C(OC(N)=O)C(O)C(Oc2ccc3c(O)c(NC(=O)c4ccc(O)c(CC=C(C)C)c4)c(=O)oc3c2C)OC1(C)C — recorded viability, T/C = 108%

Entry C=CC(=O)N1CCN(c2nc(=O)n(-c3c(C)ccnc3C(C)C)c3nc(-c4c(O)cccc4F)c(F)cc23)C(C)C1 (stereo not given) + COC1C(OC(N)=O)C(O)C(Oc2ccc3c(O)c(NC(=O)c4ccc(O)c(CC=C(C)C)c4)c(=O)oc3c2C)OC1(C)C — recorded viability, T/C = 98.4%

Entry CNCc1ccc(-c2[nH]c3cc(F)cc4c3c2CCNC4=O)cc1 + Cc1cccc(N(C)C(=O)C2C(O)CCN2c2nc(C)cc(C(F)(F)F)c2C#N)c1 — recorded viability, T/C = 108%

Entry O=c1[nH]cc(F)c(=O)[nH]1 + Cc1cccc(N(C)C(=O)C2C(O)CCN2c2nc(C)cc(C(F)(F)F)c2C#N)c1 — recorded viability, T/C = 104%

Entry CCc1cc2c(N3CCc4c(cc(Cn5ccnc5)cc4-c4cn(C)nc4C(F)(F)F)C3=O)cc(C)nc2c(OC)n1 + Nc1ccc(C#CCN(C(=O)Cc2ncc(C(F)(F)F)cc2C(F)(F)F)c2ccc(F)cc2)nn1 — recorded viability, T/C = 116%

Entry Cn1ncnc1[C@H]1c2n[nH]c(=O)c3cc(F)cc(c23)N[C@@H]1c1ccc(F)cc1 + Cc1cccc(N(C)C(=O)C2C(O)CCN2c2nc(C)cc(C(F)(F)F)c2C#N)c1 — recorded viability, T/C = 96%

Entry Nc1ccn(C2OC(CO)C(O)C2(F)F)c(=O)n1 (stereo not given) + Cc1cccc(N(C)C(=O)C2C(O)CCN2c2nc(C)cc(C(F)(F)F)c2C#N)c1 — recorded viability, T/C = 30.9%

Entry COc1cccc2c1C(=O)c1c(O)c3c(c(O)c1C2=O)CC(O)(C(=O)CO)CC3OC1CC(N)C(O)C(C)O1 (stereo not given) + COC1C(OC(N)=O)C(O)C(Oc2ccc3c(O)c(NC(=O)c4ccc(O)c(CC=C(C)C)c4)c(=O)oc3c2C)OC1(C)C — recorded viability, T/C = 83.5%

Entry C#Cc1c(F)ccc2cc(O)cc(-c3ncc4c(N5CC6CCC(C5)N6)nc(OCC56CCCN5CC(F)C6)nc4c3F)c12 (stereo not given) + Nc1ccc(C#CCN(C(=O)Cc2ncc(C(F)(F)F)cc2C(F)(F)F)c2ccc(F)cc2)nn1 — recorded viability, T/C = 105%

* * *

Listed next: entries and their corresponding pIC50.
Test system: 677734-321-R-J1-PDC complex spheroid viability
Experiment: Anticancer human tumor 677734-321-R-J1-PDC cell line growth inhibition [POLQ];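 also: spheroids exposed to compounds for one week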
Conditions: curve of first compound; second compound 1 µM
Reminder that pIC50 is minus the log10 of a molar concentration.

compound: CC1COCCN1c1cc(C2(O)CC3CCC(C2)O3)c2cnn(-c3ccn[nH]3)c2n1 (stereo not drawn) + Cc1cccc(N(C)C(=O)C2C(O)CCN2c2nc(C)cc(C(F)(F)F)c2C#N)c1
measured-number: 7.00

Entry CCc1cc2c(N3CCc4c(cc(Cn5ccnc5)cc4-c4cn(C)nc4C(F)(F)F)C3=O)cc(C)nc2c(OC)n1 + Cc1cccc(N(C)C(=O)C2C(O)CCN2c2nc(C)cc(C(F)(F)F)c2C#N)c1 — recorded pIC50 = 5.29
